Values from patent US20210130436A1

Form field: MFI at 33.3 nM (one value per entry).
SYSTEM_UNDER_TEST: T1, human CTLA4 (full-length, expressed on CHO cells) (human, UniProt P16410 36-223)
T1 construct: also called huCTLA4
TEST_NAME: flow cytometry, CHO cells expressing huCTLA4, PE anti-human Fc
PROPERTY: MFI at 33.3 nM (MFI)

1. variant CD80 IgV-Fc A26E/E35D/M43I/M47L/L85Q/K86E/R94W (Fc fusion, not shown: a dimerising Fc or GST) VIHVTKEVKEVATLSCGHNVSVEELEQTRIYWQKDKKMVLTMISGDLNIWPEYKNRTIFDITNNLSIVILALRPSDEGTYECVVQEYEKDAFKWEHLAEVTLSVKAD    2950
2. variant CD80 IgV-Fc H18Y/E35D/M47L (Fc fusion, not shown: a dimerising Fc or GST) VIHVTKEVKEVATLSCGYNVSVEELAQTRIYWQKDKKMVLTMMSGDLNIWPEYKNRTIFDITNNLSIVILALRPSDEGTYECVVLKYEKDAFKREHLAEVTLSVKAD    284000
3. variant CD80 IgV-Fc V22A/E23D/Q33L/E35D/M47V (Fc fusion, not shown: a dimerising Fc or GST) VIHVTKEVKEVATLSCGHNVSADELAQTRIYWLKDKKMVLTMMSGDVNIWPEYKNRTIFDITNNLSIVILALRPSDEGTYECVVLKYEKDAFKREHLAEVTLSVKAD    3640
4. variant CD80 IgV-Fc Q33L/E35D/T41S/M43I (Fc fusion, not shown: a dimerising Fc or GST) VIHVTKEVKEVATLSCGHNVSVEELAQTRIYWLKDKKMVLSMISGDMNIWPEYKNRTIFDITNNLSIVILALRPSDEGTYECVVLKYEKDAFKREHLAEVTLSVKAD    6390
